# targetSystem: human glucagon receptor (human) (UniProt P47871)
# assayComment: cell-based or functional assay
measuredMetric: cAMP EC50

Quick one: cAMP EC50 for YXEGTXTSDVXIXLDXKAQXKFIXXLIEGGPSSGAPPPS (Y-Aib-EGT-αMeF(2F)-TSDV-Aib-I-αMeL-LD-Orn-K((2-[2-(2-Amino-ethoxy)-ethoxy]-acetyl)2-(10-(4-carboxyphenoxy)decanoyl))AQ-Aib-K((2-[2-(2-Amino-ethoxy)-ethoxy]-acetyl)2-(10-(4-carboxyphenoxy)decanoyl))FI-(D-Glu)-αMeY-LIEGGPSSGAPPPS-NH2) [Example 394] ? > 9.95 µM

What value of measured cAMP EC50 is listed for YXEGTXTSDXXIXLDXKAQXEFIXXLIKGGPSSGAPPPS (Y-Aib-EGT-αMeF(2F)-TSD-4Pal-Aib-I-αMeL-LD-Orn-K((2-[2-(2-Amino-ethoxy)-ethoxy]-acetyl)3-(γ-Glu)-CO-(CH2)10-CH3)AQ-Aib-EFI-(D-Glu)-αMeY-LIK((2-[2-(2-Amino-ethoxy)-ethoxy]-acetyl)3-(γ-Glu)-CO-(CH2)10-CH3)GGPSSGAPPPS-NH2) [Example 423] ? > 9.95 µM

Further cases:
Request the reported cAMP EC50 associated with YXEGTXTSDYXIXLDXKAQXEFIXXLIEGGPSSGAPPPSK (Y-Aib-EGT-αMeF(2F)-TSDY-Aib-I-αMeL-LD-Orn-K((2-[2-(2-Amino-ethoxy)-ethoxy]-acetyl)2-(γ-Glu)-(10-(4-carboxyphenoxy)decanoyl))AQ-Aib-EFI-(D-Glu)-αMeY-LIEGGPSSGAPPPSK((2-[2-(2-Amino-ethoxy)-ethoxy]-acetyl)2-(γ-Glu)-(10-(4-carboxyphenoxy)decanoyl))-NH2) [Example 238] > 9.95 µM

cAMP EC50 for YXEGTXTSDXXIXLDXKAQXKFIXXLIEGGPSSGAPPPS (Y-Aib-EGT-αMeF(2F)-TSD-4Pal-Aib-I-αMeL-LD-Orn-K(PEG3-(γ-Glu)-CO-(CH2)12-CO2H)AQ-Aib-K(PEG3-(γ-Glu)-CO-(CH2)12-CO2H)FI-(D-Glu)-αMeY-LIEGGPSSGAPPPS-NH2) [Example 404] ? > 9.95 µM

// query cAMP EC50 value for entry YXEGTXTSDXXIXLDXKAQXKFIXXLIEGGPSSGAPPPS (Y-Aib-EGT-αMeF(2F)-TSD-4Pal-Aib-I-αMeL-LD-Orn-K((2-[2-(2-Amino-ethoxy)-ethoxy]-acetyl)2-CO-(CH2)12-CO2H)AQ-Aib-K((2-[2-(2-Amino-ethoxy)-ethoxy]-acetyl)2-CO-(CH2)12-CO2H)FI-(D-Glu)-αMeY-LIEGGPSSGAPPPS-NH2) [Example 384] > 9.95 µM
